Molecular target: PAPD5 (Homo sapiens)
Construct: made in house
Assay: High-throughput luminescence (KinaseGlo) RNA polyadenylation assay, ATP utilization by recombinant PAPD5
Type: biochemical
Conditions: Table 4 (entries of Table 5); 100 μM compound; ratio of luminescence with inhibitor to DMSO, higher = higher inhibition
metricName: Fold-change determined at compound concentration 100 μM
Give your answer as a number; write no unit.

Examples with answers:
molecule: Cc1ccc2cc(-c3noc(CCC(=O)Nc4nccs4)n3)c(O)nc2c1
valueReported: 1.926

molecule: O=c1c2c([nH]c3nc(CNc4ccc(Br)cc4)nn13)CCC2
valueReported: 1.461

Then there is this molecule:
GET /values?readout=Fold-change determined at compound concentration 100 μM&item= CC(C)CCn1c(=O)c2ccccc2n2c(=S)[nH]nc12 1.87

----------
// Fold-change determined at compound concentration 100 μM lookup, one value per entry
Target: PAPD5 (Homo sapiens, UniProt Q8NDF8)
Construct: made in house
Sequence (Q8NDF8 68-698 isoform Q8NDF8-5): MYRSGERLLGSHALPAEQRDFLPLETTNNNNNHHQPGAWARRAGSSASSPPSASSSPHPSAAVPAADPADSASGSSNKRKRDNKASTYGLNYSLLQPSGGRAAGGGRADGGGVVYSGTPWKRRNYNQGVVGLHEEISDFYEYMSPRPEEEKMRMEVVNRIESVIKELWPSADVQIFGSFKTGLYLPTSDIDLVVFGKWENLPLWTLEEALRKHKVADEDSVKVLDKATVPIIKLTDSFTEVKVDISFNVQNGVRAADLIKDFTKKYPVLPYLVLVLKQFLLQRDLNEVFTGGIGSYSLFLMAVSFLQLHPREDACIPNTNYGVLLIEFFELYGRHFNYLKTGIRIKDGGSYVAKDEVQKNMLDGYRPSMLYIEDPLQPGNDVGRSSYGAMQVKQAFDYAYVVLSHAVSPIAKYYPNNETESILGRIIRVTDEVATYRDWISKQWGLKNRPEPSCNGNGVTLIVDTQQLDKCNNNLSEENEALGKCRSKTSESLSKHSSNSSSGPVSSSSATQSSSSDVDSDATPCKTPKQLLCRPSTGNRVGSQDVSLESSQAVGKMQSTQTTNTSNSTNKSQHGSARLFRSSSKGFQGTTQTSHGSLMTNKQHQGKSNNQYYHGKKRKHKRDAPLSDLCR
Assay: High-throughput luminescence (KinaseGlo) RNA polyadenylation assay, ATP utilization by recombinant PAPD5
Type: biochemical
Details: Table 4 (entries of Table 5); 100 μM compound; ratio of luminescence with inhibitor to DMSO, higher = higher inhibition
Give your answer as a number; write no unit.

Examples with answers:
compound: Cc1ccc(C(=O)Nc2c(-c3ccccc3)nc3ccccn23)cc1 [Entry 190]
valueReported: 1.482
//
compound: Cc1ccc2[nH]c(=O)c3cc(C(=O)O)sc3c2c1 [Entry 220]
valueReported: 1.277
//
compound: Cn1c(=O)c2nc(SCC(=O)O)n(CCc3ccccc3)c2n(C)c1=O [Entry 79]
valueReported: 1.447
//
compound: O=c1c(S(=O)(=O)c2cccc(F)c2)c[nH]c2c(F)c(Cl)ccc12 [Entry 104]
valueReported: 1.235
//
compound: O=C(O)Cc1c2ccccc2n2c1[nH]c(=O)c1ccccc12 [Entry 222]
valueReported: 1.205
//
compound: CCOC(=O)Cn1cnc2sc3c(c2c1=O)CCCC3 [Entry 211]
valueReported: 1.217
//
compound: O=c1oc2cc(OCc3nnn[nH]3)c(Cl)cc2c2c1CCC2 [Entry 133]
valueReported: 1.508
//
compound: Cc1ccc(Cl)cc1NCc1nc2[nH]c3c(c(=O)n2n1)CCC3 [Entry 154]
valueReported: 1.282
//
compound: COc1ccc(NS(=O)(=O)c2ccc3c(c2)[C@H]2C=CC[C@H]2[C@@H](c2ccc(C(=O)O)cc2)N3)cc1 [Entry 100]
valueReported: 2.297
//
compound: O=C(O)c1ccccc1C(=O)Nc1ccc(Br)c2cccnc12 [Entry 83]
valueReported: 1.203

GET /values?readout=Fold-change determined at compound concentration 100 μM&item= OCCN(CCO)c1nc(N2CCCCC2)c2nc(N(CCO)CCO)nc(N3CCCCC3)c2n1 [Entry 34] 1.212

GET /values?readout=Fold-change determined at compound concentration 100 μM&item= c1ccc(CC2CCN(c3nnc(Cc4ccncc4)c4ccccc34)CC2)cc1 [Entry 55] 1.592

GET /values?readout=Fold-change determined at compound concentration 100 μM&item= Cc1nnc2ccc(-n3ncc4c3NC(=O)CC4c3ccc(O)cc3)nn12 (stereo not drawn) [Entry 148] 1.215

GET /values?readout=Fold-change determined at compound concentration 100 μM&item= CC1CCN(C(=O)CSc2nc3c(c(=O)n2Cc2ccccc2)SCC3)CC1 [Entry 232] 1.342

GET /values?readout=Fold-change determined at compound concentration 100 μM&item= O=C(O)c1ccc(N2C(=O)c3[nH]nc(-c4ccccc4)c3C2c2cccc(O)c2)cc1 (stereo not drawn) [Entry 242] 1.283

GET /values?readout=Fold-change determined at compound concentration 100 μM&item= Cc1cc(C)c2nc(C)cc(C(=O)O)c2c1 [Entry 85] 1.252

----------
// Fold-change determined at compound concentration 100 μM lookup, one value per entry
Target: PAPD5 (Homo sapiens)
Construct: made in house
Test: High-throughput luminescence (KinaseGlo) RNA polyadenylation assay, ATP utilization by recombinant PAPD5
Assay type: biochemical
Details: Table 4 (entries of Table 5); 100 μM compound; ratio of luminescence with inhibitor to DMSO, higher = higher inhibition
Give your answer as a number; write no unit.

GET /values?readout=Fold-change determined at compound concentration 100 μM&item= O=c1nc(SCc2ccc(F)cc2)[nH]c2nc[nH]c12 [Entry 162] 1.431

GET /values?readout=Fold-change determined at compound concentration 100 μM&item= COc1ccc(CNC(=O)Nc2cn(CC(C)C)c(=O)c3ccccc23)c(OC)c1 [Entry 60a] 1.507

GET /values?readout=Fold-change determined at compound concentration 100 μM&item= CC(C)c1nnc(NC(=O)c2cc(=O)c3ccc(Br)cc3o2)s1 [Entry 121] 1.26

GET /values?readout=Fold-change determined at compound concentration 100 μM&item= CC(C)c1nnc2ccc(N3CCN(C)CC3)nn12 [Entry 50] 2.083

GET /values?readout=Fold-change determined at compound concentration 100 μM&item= CCOCCCNC(=O)Cn1cc2c(n1)-c1c(oc(C(=O)N3CCCC3)c1C)CC2 [Entry 169] 1.879

GET /values?readout=Fold-change determined at compound concentration 100 μM&item= Cc1ccccc1CSc1nc(=O)c2[nH]cnc2[nH]1 [Entry 163] 1.287

----------
Target: PAPD5 (Homo sapiens)
Construct: made in house
Experiment: High-throughput luminescence (KinaseGlo) RNA polyadenylation assay, ATP utilization by recombinant PAPD5
Assay type: biochemical
Details: Table 4 (entries of Table 5); 100 μM compound; ratio of luminescence with inhibitor to DMSO, higher = higher inhibition
// Fold-change determined at compound concentration 100 μM lookup, one value per entry
Give your answer as a number; write no unit.

Examples with answers:
compound: CC(C)C(CO)Nc1nc(Nc2ccc(C(=O)O)c(Cl)c2)c2ncn(C(C)C)c2n1 (stereo in doubt)
valueReported: 1.328
//
compound: O=S(=O)(NC1=NC2=NC(c3ccccc3)=CC(c3ccc(F)cc3)N2N1)c1ccc(Cl)cc1 (centres unmarked)
valueReported: 1.203

GET /values?readout=Fold-change determined at compound concentration 100 μM&item= CCn1c(SCC(=O)O)nc2c(=O)n(C)c(=O)n(C)c21 1.419

GET /values?readout=Fold-change determined at compound concentration 100 μM&item= Cc1cc(=O)oc2cc(OCC(=O)Nc3ccc(O)c(C(=O)O)c3)ccc12 1.212

GET /values?readout=Fold-change determined at compound concentration 100 μM&item= O=C(O)c1cc(-c2ccc(C(F)(F)F)cc2)nc2n[nH]c(-c3ccccc3)c12 1.35

----------
Target: PAPD5 (Homo sapiens, UniProt Q8NDF8)
Construct: made in house
Assay: High-throughput luminescence (KinaseGlo) RNA polyadenylation assay, ATP utilization by recombinant PAPD5
Type: biochemical
Conditions: Table 4 (entries of Table 5); 33 μM compound; ratio of luminescence with inhibitor to DMSO
metricName: Fold-change determined at compound concentration 33 μM
Give your answer as a number; write no unit.

Examples with answers:
compound: Cc1ccc(-n2c(N3CCCC(C(=O)O)C3)nc3ccsc3c2=O)cc1 (stereo not shown)
valueReported: 1.207
//
compound: O=C(O)c1ccccc1C(=O)Nc1ccc(Br)c2cccnc12
valueReported: 1.041
//
compound: Cc1cc(C)c2c(=O)cc(C(=O)Nc3ccc(S(=O)(=O)Nc4onc(C)c4C)cc3)oc2c1
valueReported: 1.316
//
compound: CCc1cc(=O)n2nc(NCc3ccccc3C)nc2[nH]1
valueReported: 1.116
//
compound: Cc1oc2ccccc2c1C(=O)CSc1nc(O)c2nc[nH]c2n1
valueReported: 1.126

PAPD5 (Homo sapiens, UniProt Q8NDF8) / Fold-change determined at compound concentration 33 μM / COc1ccc(-c2[nH]nc3nc(-c4cc(OC)c(OC)c(OC)c4)cc(C(=O)O)c23)cc1 : value? 1.308

PAPD5 (Homo sapiens, UniProt Q8NDF8) / Fold-change determined at compound concentration 33 μM / O=S(=O)(Nc1ccc2nnc(-c3ccccc3)n2n1)c1ccc(Cl)cc1 : value? 1.242

----------
// Fold-change determined at compound concentration 100 μM lookup, one value per entry
Biological target: PAPD5 (Homo sapiens, UniProt Q8NDF8)
Construct: made in house
Experiment: High-throughput luminescence (KinaseGlo) RNA polyadenylation assay, ATP utilization by recombinant PAPD5
Type: biochemical
Conditions: Table 4 (entries of Table 5); 100 μM compound; ratio of luminescence with inhibitor to DMSO, higher = higher inhibition
Give your answer as a number; write no unit.

molecule: Cc1cc(Cl)ccc1NS(=O)(=O)c1cc2[nH]c(=O)c(=O)[nH]c2cc1C [Entry 134]
valueReported: 1.298
//
molecule: CCOc1ccc2oc(=O)cc(CN3CCN(C(=O)c4ccc(OC)c(OC)c4)CC3)c2c1 [Entry 129]
valueReported: 1.395
//
molecule: Cc1cc(C)c2c(=O)cc(CSc3nnc(-c4cccc(F)c4)n3C)[nH]c2c1 [Entry 106]
valueReported: 1.522
//
molecule: Cn1[nH]c(-c2cccnc2)c2nc(-c3ccccc3OC(F)F)nc1-2 [Entry 227]
valueReported: 1.425
//
molecule: COc1cccc(NC(=O)c2ccc3c(=O)n4nc(Nc5ccccc5OC)sc4nc3c2)c1 [Entry 218]
valueReported: 1.304

PAPD5 (Homo sapiens, UniProt Q8NDF8) / Fold-change determined at compound concentration 100 μM / Cc1ccc(S(=O)(=O)NCc2ccc(-c3nn4cnnc4s3)cc2)cc1 [Entry 216] : value? 1.239

PAPD5 (Homo sapiens, UniProt Q8NDF8) / Fold-change determined at compound concentration 100 μM / NC1CCN(c2nc3c(cc2F)c(=O)c(C(=O)O)cn3-c2ccc(F)cc2F)C1 (stereo not shown) [Entry 62] : value? 1.41

PAPD5 (Homo sapiens, UniProt Q8NDF8) / Fold-change determined at compound concentration 100 μM / NC(=O)C1CCN(c2ncnc3sc4c(c23)CCCC4)CC1 [Entry 43] : value? 2.294

PAPD5 (Homo sapiens, UniProt Q8NDF8) / Fold-change determined at compound concentration 100 μM / CN(C)CCNC(=O)c1ccc(Cn2c(=O)c3cccn3c3cccnc32)cc1 [Entry 70] : value? 1.206

PAPD5 (Homo sapiens, UniProt Q8NDF8) / Fold-change determined at compound concentration 100 μM / Cc1ccc(-c2ccc3nnc(C)n3n2)cc1S(=O)(=O)N1CCCC1 [Entry 146] : value? 1.217
